Every entry's value here was drawn from PubChem BioAssay AID2060602.

System: 648629-189-R-J1-PDC complex spheroids viability
Assay: Anticancer human tumor 648629-189-R-J1-PDC patient-derived bladder carcinoma cell line growth inhibition [CLK]
Settings: curve of first compound; second compound 0.1 µM
# IC50 listing for each entry below
// units = µM; emit number, no label

# compound, IC50 / µM
rows = [
    ("COc1ccc([C@@H](O)c2cc(-c3ncnc4cc(N5CCOCC5)ccc34)c(F)cc2Cl)nn1 + CN1CCN(c2cc(C(=O)Nc3cc4cc(-c5cnn(C)c5)ccc4cn3)ccn2)CC1", 8.17),
]

Form: Entry = C=CC(=O)Nc1cc(Nc2nccc(-c3cn(C)c4ccccc34)n2)c(OC)cc1N(C)CCN(C)C + CNC(=O)c1ccc(Nc2nc(OC3CCCC3)c3c(-c4ccc5nc(C)oc5c4)c[nH]c3n2)c(OC)c1 | System = 648629-189-R-J1-PDC complex spheroids viability | IC50 = ____
0.132

What would you report for CCCS(=O)(=O)Nc1ccc(F)c(C(=O)c2c[nH]c3ncc(-c4ccc(Cl)cc4)cc23)c1F + CNC(=O)c1ccc(Nc2nc(OC3CCCC3)c3c(-c4ccc5nc(C)oc5c4)c[nH]c3n2)c(OC)c1 ?
5.91

* * *

Below, each of the molecules is paired with its reported viability, T/C value.
System: 648629-189-R-J1-PDC complex spheroids viability
Assay: Anticancer human tumor 648629-189-R-J1-PDC cell line growth inhibition [CLK];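 for viability, T/C: drug exposure lasted seven days before viability readout; 100% = DMSO vehicle control wells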
Settings: second compound 3.16 µM; first compound 0.00316 µM; stronger effect = lower value
# value in %; strip the unit string

// solved cases for viability, T/C follow
# molecule, viability, T/C (%)
data = [
    ("CCN1CCN(Cc2ccc(Nc3ncc(F)c(-c4cc(F)c5nc(C)n(C(C)C)c5c4)n3)nc2)CC1 + CNC(=O)c1ccc(Nc2nc(OC3CCCC3)c3c(-c4ccc5nc(C)oc5c4)c[nH]c3n2)c(OC)c1", 18.2),
    ("CCc1c2c(nc3ccc(O)cc13)-c1cc3c(c(=O)n1C2)COC(=O)[C@]3(O)CC + CNC(=O)c1ccc(Nc2nc(OC3CCCC3)c3c(-c4ccc5nc(C)oc5c4)c[nH]c3n2)c(OC)c1", 14.8),
]

# query: viability, T/C of entry COc1c(OCCCN2CCOCC2)ccc2c3n(c(=NC(=O)c4cnc(N)nc4)nc12)CCN3 + CNC(=O)c1ccc(Nc2nc(OC3CCCC3)c3c(-c4ccc5nc(C)oc5c4)c[nH]c3n2)c(OC)c1
16.3

* * *

System: 648629-189-R-J1-PDC complex spheroids viability
Experiment: Anticancer human tumor 648629-189-R-J1-PDC cell line growth inhibition [CLK];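 for viability, T/C: drug exposure lasted seven days before viability readout; 100% = DMSO vehicle control wells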
Settings: second compound 1 µM; first compound 0.03 µM; stronger effect = lower value
# key: entry, value: viability, T/C
Report only the number, with the unit % understood.

Examples with answers:
# compound, viability, T/C, %
records = [
    ("CC(C)CC(NC(=O)C(Cc1ccccc1)NC(=O)c1cnccn1)B(O)O (stereo unspecified) + CN1CCN(c2cc(C(=O)Nc3cc4cc(-c5cnn(C)c5)ccc4cn3)ccn2)CC1", 0.1),
    ("CC(C)CC(NC(=O)C(Cc1ccccc1)NC(=O)c1cnccn1)B(O)O (stereo unspecified) + CNC(=O)c1ccc(Nc2nc(OC3CCCC3)c3c(-c4ccc5nc(C)oc5c4)c[nH]c3n2)c(OC)c1", 0.36),
    ("C=CC(=O)Nc1cc(Nc2nccc(-c3cn(C)c4ccccc34)n2)c(OC)cc1N(C)CCN(C)C + CN1CCN(c2cc(C(=O)Nc3cc4cc(-c5cnn(C)c5)ccc4cn3)ccn2)CC1", 0.49),
    ("NC(=O)C(=Cn1cnc(-c2cc(C(F)(F)F)cc(C(F)(F)F)c2)n1)c1cncnc1 + CNC(=O)c1ccc(Nc2nc(OC3CCCC3)c3c(-c4ccc5nc(C)oc5c4)c[nH]c3n2)c(OC)c1", 11.5),
    ("C=CC(=O)Nc1cc(Nc2nccc(-c3cn(C)c4ccccc34)n2)c(OC)cc1N(C)CCN(C)C + CNC(=O)c1ccc(Nc2nc(OC3CCCC3)c3c(-c4ccc5nc(C)oc5c4)c[nH]c3n2)c(OC)c1", 16.1),
]

Then this compound:
Which measured viability, T/C value corresponds to NC(=O)C(=Cn1cnc(-c2cc(C(F)(F)F)cc(C(F)(F)F)c2)n1)c1cncnc1 + CN1CCN(c2cc(C(=O)Nc3cc4cc(-c5cnn(C)c5)ccc4cn3)ccn2)CC1 ?
0.12

* * *

Test system: 648629-189-R-J1-PDC complex spheroids viability
Assay: Anticancer human tumor 648629-189-R-J1-PDC cell line growth inhibition [CLK]
Conditions: curve of first compound; second compound 0.0316 µM
propertyName: IC50

# molecule, measuredOn, IC50
rows = [
    ("CCN1CCN(Cc2ccc(Nc3ncc(F)c(-c4cc(F)c5nc(C)n(C(C)C)c5c4)n3)nc2)CC1 + CN1CCN(c2cc(C(=O)Nc3cc4cc(-c5cnn(C)c5)ccc4cn3)ccn2)CC1", "648629-189-R-J1-PDC complex spheroids viability", "> 1 µM"),
]

What does the record list as IC50 for CC1(C)CCC(CN2CCN(c3ccc(C(=O)NS(=O)(=O)c4ccc(NCC5CCOCC5)c([N+](=O)[O-])c4)c(Oc4cnc5[nH]ccc5c4)c3)CC2)=C(c2ccc(Cl)cc2)C1 + CNC(=O)c1ccc(Nc2nc(OC3CCCC3)c3c(-c4ccc5nc(C)oc5c4)c[nH]c3n2)c(OC)c1 ?
> 10 µM

Try this molecule next: CC1(C)CCC(CN2CCN(c3ccc(C(=O)NS(=O)(=O)c4ccc(NCC5CCOCC5)c([N+](=O)[O-])c4)c(Oc4cnc5[nH]ccc5c4)c3)CC2)=C(c2ccc(Cl)cc2)C1 + CN1CCN(c2cc(C(=O)Nc3cc4cc(-c5cnn(C)c5)ccc4cn3)ccn2)CC1
> 10 µM

Subsequent entry: CC(=O)O[C@H]1C(=O)[C@@]2(C)[C@H]([C@H](OC(=O)c3ccccc3)[C@]3(O)C[C@H](OC(=O)[C@H](O)[C@@H](NC(=O)c4ccccc4)c4ccccc4)C(C)=C1C3(C)C)[C@]1(OC(C)=O)CO[C@@H]1C[C@@H]2O + CNC(=O)c1ccc(Nc2nc(OC3CCCC3)c3c(-c4ccc5nc(C)oc5c4)c[nH]c3n2)c(OC)c1
< 0.0316 µM

Let us now turn to C#Cc1c(F)ccc2cc(O)cc(-c3ncc4c(N5CC6CCC(C5)N6)nc(OCC56CCCN5CC(F)C6)nc4c3F)c12 (configuration not stated) + CNC(=O)c1ccc(Nc2nc(OC3CCCC3)c3c(-c4ccc5nc(C)oc5c4)c[nH]c3n2)c(OC)c1
> 10 µM

Please answer likewise for C=CC(=O)N1CCN(c2nc(=O)n(-c3c(C)ccnc3C(C)C)c3nc(-c4c(O)cccc4F)c(F)cc23)C(C)C1 (configuration not stated) + CNC(=O)c1ccc(Nc2nc(OC3CCCC3)c3c(-c4ccc5nc(C)oc5c4)c[nH]c3n2)c(OC)c1
> 10 µM

Next molecule: CC(CO)NC(=O)c1cc(-c2ccc(Cl)cc2)nn(-c2cnn(C)c2)c1=O (configuration not stated) + CNC(=O)c1ccc(Nc2nc(OC3CCCC3)c3c(-c4ccc5nc(C)oc5c4)c[nH]c3n2)c(OC)c1
> 10 µM

Continue with COc1cccc2c1C(=O)c1c(O)c3c(c(O)c1C2=O)CC(O)(C(=O)CO)CC3OC1CC(N)C(O)C(C)O1 (configuration not stated) + CNC(=O)c1ccc(Nc2nc(OC3CCCC3)c3c(-c4ccc5nc(C)oc5c4)c[nH]c3n2)c(OC)c1
< 0.0316 µM

Item: O=C(c1cc(Cc2n[nH]c(=O)c3ccccc23)ccc1F)N1CCN(C(=O)C2CC2)CC1 + CNC(=O)c1ccc(Nc2nc(OC3CCCC3)c3c(-c4ccc5nc(C)oc5c4)c[nH]c3n2)c(OC)c1
> 10 µM

Entry to check: Cn1ncnc1[C@H]1c2n[nH]c(=O)c3cc(F)cc(c23)N[C@@H]1c1ccc(F)cc1 + CN1CCN(c2cc(C(=O)Nc3cc4cc(-c5cnn(C)c5)ccc4cn3)ccn2)CC1
> 0.1 µM

Then what about the molecule C#Cc1c(F)ccc2cc(O)cc(-c3ncc4c(N5CC6CCC(C5)N6)nc(OCC56CCCN5CC(F)C6)nc4c3F)c12 (configuration not stated) + CN1CCN(c2cc(C(=O)Nc3cc4cc(-c5cnn(C)c5)ccc4cn3)ccn2)CC1 ?
> 10 µM

Record: Cn1ncnc1[C@H]1c2n[nH]c(=O)c3cc(F)cc(c23)N[C@@H]1c1ccc(F)cc1 + CNC(=O)c1ccc(Nc2nc(OC3CCCC3)c3c(-c4ccc5nc(C)oc5c4)c[nH]c3n2)c(OC)c1
> 0.1 µM

* * *

Test system: 648629-189-R-J1-PDC complex spheroids viability
Experiment: Anticancer human tumor 648629-189-R-J1-PDC cell line growth inhibition [CLK];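 for viability, T/C: drug exposure lasted seven days before viability readout; 100% = DMSO vehicle control wells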
Settings: second compound 1 µM; first compound 3.16 µM; stronger effect = lower value
propertyName: viability, T/C (%)
Numbers only; they are read as %.

# compound, measuredOn, reportedValue
measured = [
    ("O=C(c1cc(Cc2n[nH]c(=O)c3ccccc23)ccc1F)N1CCN(C(=O)C2CC2)CC1 + CNC(=O)c1ccc(Nc2nc(OC3CCCC3)c3c(-c4ccc5nc(C)oc5c4)c[nH]c3n2)c(OC)c1", "648629-189-R-J1-PDC complex spheroids viability", 17.6),
    ("CC(CO)NC(=O)c1cc(-c2ccc(Cl)cc2)nn(-c2cnn(C)c2)c1=O (stereo not given) + CNC(=O)c1ccc(Nc2nc(OC3CCCC3)c3c(-c4ccc5nc(C)oc5c4)c[nH]c3n2)c(OC)c1", "648629-189-R-J1-PDC complex spheroids viability", 22.5),
    ("C=CC(=O)N1CCN(c2nc(=O)n(-c3c(C)ccnc3C(C)C)c3nc(-c4c(O)cccc4F)c(F)cc23)C(C)C1 (stereo not given) + CNC(=O)c1ccc(Nc2nc(OC3CCCC3)c3c(-c4ccc5nc(C)oc5c4)c[nH]c3n2)c(OC)c1", "648629-189-R-J1-PDC complex spheroids viability", 26.9),
    ("CC(=O)O[C@H]1C(=O)[C@@]2(C)[C@H]([C@H](OC(=O)c3ccccc3)[C@]3(O)C[C@H](OC(=O)[C@H](O)[C@@H](NC(=O)c4ccccc4)c4ccccc4)C(C)=C1C3(C)C)[C@]1(OC(C)=O)CO[C@@H]1C[C@@H]2O + CN1CCN(c2cc(C(=O)Nc3cc4cc(-c5cnn(C)c5)ccc4cn3)ccn2)CC1", "648629-189-R-J1-PDC complex spheroids viability", 0.47),
    ("Nc1ccccc1NC(=O)c1ccc(CNC(=O)OCc2cccnc2)cc1 + CNC(=O)c1ccc(Nc2nc(OC3CCCC3)c3c(-c4ccc5nc(C)oc5c4)c[nH]c3n2)c(OC)c1", "648629-189-R-J1-PDC complex spheroids viability", 12.6),
    ("C=C(F)C(=O)N1CCN(c2nc(OCC3CCCN3C)nc3c2CCN(c2cccc4cccc(Cl)c24)C3)CC1CC#N (stereo not given) + CNC(=O)c1ccc(Nc2nc(OC3CCCC3)c3c(-c4ccc5nc(C)oc5c4)c[nH]c3n2)c(OC)c1", "648629-189-R-J1-PDC complex spheroids viability", 20.8),
    ("COc1cccc2c1C(=O)c1c(O)c3c(c(O)c1C2=O)CC(O)(C(=O)CO)CC3OC1CC(N)C(O)C(C)O1 (stereo not given) + CN1CCN(c2cc(C(=O)Nc3cc4cc(-c5cnn(C)c5)ccc4cn3)ccn2)CC1", "648629-189-R-J1-PDC complex spheroids viability", 0.11),
    ("O=c1[nH]cc(F)c(=O)[nH]1 + CN1CCN(c2cc(C(=O)Nc3cc4cc(-c5cnn(C)c5)ccc4cn3)ccn2)CC1", "648629-189-R-J1-PDC complex spheroids viability", 0.27),
]

Give viability, T/C (648629-189-R-J1-PDC complex spheroids viability) of the following compound: Nc1ccn(C2OC(CO)C(O)C2(F)F)c(=O)n1 (stereo not given) + CNC(=O)c1ccc(Nc2nc(OC3CCCC3)c3c(-c4ccc5nc(C)oc5c4)c[nH]c3n2)c(OC)c1
9.1

Next compound: C#Cc1c(F)ccc2cc(O)cc(-c3ncc4c(N5CC6CCC(C5)N6)nc(OCC56CCCN5CC(F)C6)nc4c3F)c12 (stereo not given) + CN1CCN(c2cc(C(=O)Nc3cc4cc(-c5cnn(C)c5)ccc4cn3)ccn2)CC1
0.51
